tested on: XF498; test: In vitro cytotoxicity against CNS cancer XF 498 cell lines; type: functional, cell-based, Homo sapiens
assayReadout: IC50 (µM)
Express the result in µM but write the number alone.

Prompt: With XF498 as the test system, provide measured IC50 for this sequence: `CARBOPLATIN`
Completion: 13.6

---
Prompt: Give IC50 for this entry on XF498: `CISPLATIN`
Completion: 2.9
